- EXPERIMENT SUMMARY: Cytotoxicity against mouse NIH/3T3 cells assessed as cell survival after 72 hrs by MTT assay
- Type: cell-based, NIH3T3
PROPERTY NAME: IC50 at 72 h (µM)
# number only, unit µM dropped from output

>>> quantitative_result("CC(C)(C)NC(=O)[C@@H]1C[C@@H]2CCCC[C@@H]2CN1C[C@@H](O)[C@H](Cc1ccccc1)NC(=O)[C@H](CC(N)=O)NC(=O)c1ccc2ccccc2n1")
37

Lab note: next compound to report on.
Item under review: `O=C[C@H](Cc1ccccc1)NC(=O)N(Cc1ccccc1)N1CCOCC1` . Reported IC50 at 72 h?
79.8

###

- ASSAYED TARGET: MDR1 (ABCB1, P-gp) (Homo sapiens, UniProt P08183)
- Sequence (P08183 whole entry): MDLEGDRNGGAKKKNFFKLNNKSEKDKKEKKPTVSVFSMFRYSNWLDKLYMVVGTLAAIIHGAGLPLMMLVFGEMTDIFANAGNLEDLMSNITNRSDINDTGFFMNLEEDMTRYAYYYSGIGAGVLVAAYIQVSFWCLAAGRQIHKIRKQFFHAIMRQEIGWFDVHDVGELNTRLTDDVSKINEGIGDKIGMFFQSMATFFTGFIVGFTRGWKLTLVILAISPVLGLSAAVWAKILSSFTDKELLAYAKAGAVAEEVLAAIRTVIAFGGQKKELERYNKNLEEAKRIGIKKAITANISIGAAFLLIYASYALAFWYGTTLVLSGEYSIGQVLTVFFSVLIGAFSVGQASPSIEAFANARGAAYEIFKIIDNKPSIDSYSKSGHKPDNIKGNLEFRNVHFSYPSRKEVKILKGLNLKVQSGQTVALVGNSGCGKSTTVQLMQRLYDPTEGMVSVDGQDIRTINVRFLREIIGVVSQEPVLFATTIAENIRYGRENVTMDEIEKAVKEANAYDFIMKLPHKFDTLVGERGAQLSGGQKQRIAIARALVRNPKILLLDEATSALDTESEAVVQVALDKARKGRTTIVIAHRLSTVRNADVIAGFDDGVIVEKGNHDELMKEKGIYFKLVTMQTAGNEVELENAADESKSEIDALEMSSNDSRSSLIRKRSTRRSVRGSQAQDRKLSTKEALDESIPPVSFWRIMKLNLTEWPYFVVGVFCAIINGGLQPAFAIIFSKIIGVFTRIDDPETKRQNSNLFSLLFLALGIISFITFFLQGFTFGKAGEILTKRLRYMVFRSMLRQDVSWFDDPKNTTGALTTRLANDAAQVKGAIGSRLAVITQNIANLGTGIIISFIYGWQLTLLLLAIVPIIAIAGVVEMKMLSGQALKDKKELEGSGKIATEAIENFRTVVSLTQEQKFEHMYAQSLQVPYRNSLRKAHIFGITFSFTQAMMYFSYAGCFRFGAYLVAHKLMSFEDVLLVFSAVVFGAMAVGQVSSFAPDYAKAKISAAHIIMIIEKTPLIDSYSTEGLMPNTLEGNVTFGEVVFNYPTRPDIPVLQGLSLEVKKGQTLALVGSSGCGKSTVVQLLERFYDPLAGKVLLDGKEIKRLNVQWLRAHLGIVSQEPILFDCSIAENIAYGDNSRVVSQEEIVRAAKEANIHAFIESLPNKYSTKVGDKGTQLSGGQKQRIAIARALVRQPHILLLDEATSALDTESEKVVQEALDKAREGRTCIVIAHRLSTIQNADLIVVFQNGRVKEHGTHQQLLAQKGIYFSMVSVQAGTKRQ
- EXPERIMENT SUMMARY: Inhibition of MDR1 (unknown origin) expressed in mouse NIH/3T3 cells assessed as inhibition of mitoxatrone efflux at 2 uM after 1 hr by FACS analysis
- Assay type: cell-based
- CONDITION CONTEXT: NIH/3T3 cells expressing MDR1, probe mitoxantrone (printed: mitoxatrone)
Reported inhibition at 1 h, 2 µM values for a set of molecules
# number only, unit % dropped from output

>>> quantitative_result("O=C[C@H](Cc1ccccc1)NC(=O)N(Cc1ccccc1)N1CCCCC1")
5.5
>>> quantitative_result("O=C[C@H](Cc1ccccc1)NC(=O)N(Cc1cccc(O)c1)N1CCCCC1")
4.6
>>> quantitative_result("COc1cc2c(cc1OC)CN(CCc1ccc(NC(=O)c3cccc4c(=O)c5cccc(OC)c5[nH]c34)cc1)CC2")
110

Item under review: `O=C[C@H](Cc1ccccc1)NC(=O)N(Cc1ccccc1)N1CCOCC1` . Reported inhibition at 1 h, 2 µM?
7.1

Same read-out for `O=C[C@H](Cc1ccccc1)N(Cc1ccccc1)C(=O)N(Cc1ccccc1)N1CCCCC1` ?
1.8

Same read-out for `CN(C)N(Cc1ccccc1)C(=O)N[C@H](C=O)Cc1ccccc1` ?
2.3

Same read-out for `COc1cccc(CN(C(=O)N[C@H](C=O)Cc2ccccc2)N2CCCCC2)c1` ?
7.7

Same read-out for `O=C[C@H](Cc1ccc(O)cc1)NC(=O)N(Cc1ccccc1)N1CCCCC1` ?
1.1

###

- EXPERIMENT SUMMARY: Cytotoxicity against human HEK293 cells expressing BCRP assessed as cell survival after 72 hrs by MTT assay
PROPERTY NAME: IC50 at 72 h (µM)
# number only, unit µM dropped from output

Item under review: `O=C[C@H](Cc1ccccc1)N(Cc1ccccc1)C(=O)N(Cc1ccccc1)N1CCCCC1` . Reported IC50 at 72 h?
12.8

###

- EXPERIMENT SUMMARY: Cytotoxicity against human HEK293 cells assessed as cell survival after 72 hrs by MTT assay
PROPERTY NAME: IC50 at 72 h (µM)
# number only, unit µM dropped from output

Item under review: `O=C[C@H](Cc1ccccc1)N(Cc1ccccc1)C(=O)N(Cc1ccccc1)N1CCCCC1` . Reported IC50 at 72 h?
17.6

###

- ASSAYED TARGET: BCRP (ABCG2) (Homo sapiens, UniProt Q9UNQ0)
- Sequence (Q9UNQ0 whole entry): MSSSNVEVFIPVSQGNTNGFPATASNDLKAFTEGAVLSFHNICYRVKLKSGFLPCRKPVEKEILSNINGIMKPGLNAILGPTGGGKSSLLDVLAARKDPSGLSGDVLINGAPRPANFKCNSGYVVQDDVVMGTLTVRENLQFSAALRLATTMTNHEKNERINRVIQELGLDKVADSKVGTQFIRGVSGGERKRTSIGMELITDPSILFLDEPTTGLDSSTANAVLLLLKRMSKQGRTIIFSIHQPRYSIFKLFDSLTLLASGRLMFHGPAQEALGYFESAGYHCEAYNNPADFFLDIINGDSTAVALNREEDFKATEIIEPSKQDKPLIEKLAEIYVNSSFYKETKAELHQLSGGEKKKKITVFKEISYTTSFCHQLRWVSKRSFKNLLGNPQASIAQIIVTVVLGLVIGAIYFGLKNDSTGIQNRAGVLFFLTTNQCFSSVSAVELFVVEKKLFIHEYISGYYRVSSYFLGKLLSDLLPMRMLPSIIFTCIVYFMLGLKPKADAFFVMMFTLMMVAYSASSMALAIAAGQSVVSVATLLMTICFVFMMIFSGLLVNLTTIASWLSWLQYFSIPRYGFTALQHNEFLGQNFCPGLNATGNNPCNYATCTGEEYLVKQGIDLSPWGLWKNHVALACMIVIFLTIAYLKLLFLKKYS
- EXPERIMENT SUMMARY: Inhibition of BCRP (unknown origin) expressed in mouse NIH/3T3 cells assessed as inhibition of mitoxatrone efflux at 2 uM after 1 hr by FACS analysis
- Type: cell-based, NIH3T3
- CONDITION CONTEXT: NIH/3T3 cells expressing BCRP, probe mitoxantrone (printed: mitoxatrone)
Reported inhibition at 1 h, 2 µM values for a set of molecules
# number only, unit % dropped from output

Check out these entries, answers already filled in.
>>> quantitative_result("O=C[C@H](Cc1ccccc1)NC(=O)N(Cc1cccc(O)c1)N1CCCCC1")
2.5
>>> quantitative_result("COc1cccc(CN(C(=O)N[C@H](C=O)Cc2ccccc2)N2CCCCC2)c1")
0.9
>>> quantitative_result("CN(C)N(Cc1ccccc1)C(=O)N[C@H](C=O)Cc1ccccc1")
0.2
>>> quantitative_result("O=C[C@H](Cc1ccc(O)cc1)NC(=O)N(Cc1ccccc1)N1CCCCC1")
0.9
>>> quantitative_result("O=C[C@H](Cc1ccccc1)NC(=O)N(Cc1ccccc1)N1CCCCC1")
0.2
>>> quantitative_result("O=C[C@H](Cc1ccccc1)NC(=O)N(Cc1ccccc1)N1CCOCC1")
0.2

Reported inhibition at 1 h, 2 µM for BCRP (ABCG2) (Homo sapiens, UniProt Q9UNQ0), given `O=C[C@H](Cc1ccccc1)N(Cc1ccccc1)C(=O)N(Cc1ccccc1)N1CCCCC1` ?
1.8

###

Reported pKi values for a set of compounds
- ASSAYED TARGET: Protease (Human immunodeficiency virus 1, UniProt Q9YQ12)
- Sequence (Q9YQ12 whole entry): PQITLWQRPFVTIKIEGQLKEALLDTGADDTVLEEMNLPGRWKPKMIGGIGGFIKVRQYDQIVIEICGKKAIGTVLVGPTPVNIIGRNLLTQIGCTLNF
- EXPERIMENT SUMMARY: Inhibition of HIV-1 recombinant protease using DABCYL-GABA-Ser-Asn-Tyr-Pro-Ile-Val-Gln-EDANS as substrate incubated for 30 mins prior to substrate addition by Hanes plot analysis
Note: pKi values are expressed as the negative base-10 logarithm of concentration in M.

Check out these entries, answers already filled in.
>>> quantitative_result("O=C[C@H](Cc1ccccc1)N(Cc1ccccc1)C(=O)N(Cc1ccccc1)N1CCCCC1")
2.95
>>> quantitative_result("O=C[C@H](Cc1ccccc1)NC(=O)N(Cc1cccc(O)c1)N1CCCCC1")
3.62
>>> quantitative_result("CN(C)N(Cc1ccccc1)C(=O)N[C@H](C=O)Cc1ccccc1")
3.39
>>> quantitative_result("COc1cccc(CN(C(=O)N[C@H](C=O)Cc2ccccc2)N2CCCCC2)c1")
3.39
>>> quantitative_result("O=C[C@H](Cc1ccccc1)NC(=O)N(Cc1ccccc1)N1CCOCC1")
3.44
>>> quantitative_result("O=C[C@H](Cc1ccc(O)cc1)NC(=O)N(Cc1ccccc1)N1CCCCC1")
3.47

Item under review: `O=C[C@H](Cc1ccccc1)NC(=O)N(Cc1ccccc1)N1CCCCC1` . Reported pKi?
3.59

###

Reported pKi values for a set of compounds
- ASSAYED TARGET: Protease (Human immunodeficiency virus 1)
- EXPERIMENT SUMMARY: Inhibition of HIV-1 recombinant protease using DABCYL-GABA-Ser-Asn-Tyr-Pro-Ile-Val-Gln-EDANS as substrate incubated for 30 mins prior to substrate addition by Dixon plot analysis
Note: pKi values are expressed as the negative base-10 logarithm of concentration in M.

>>> quantitative_result("CN(C)N(Cc1ccccc1)C(=O)N[C@H](C=O)Cc1ccccc1")
3.31
>>> quantitative_result("O=C[C@H](Cc1ccccc1)NC(=O)N(Cc1ccccc1)N1CCOCC1")
3.00
>>> quantitative_result("O=C[C@H](Cc1ccccc1)NC(=O)N(Cc1cccc(O)c1)N1CCCCC1")
3.84

Item under review: `O=C[C@H](Cc1ccccc1)N(Cc1ccccc1)C(=O)N(Cc1ccccc1)N1CCCCC1` . Reported pKi?
3.00

Same read-out for `O=C[C@H](Cc1ccc(O)cc1)NC(=O)N(Cc1ccccc1)N1CCCCC1` ?
3.51

Same read-out for `O=C[C@H](Cc1ccccc1)NC(=O)N(Cc1ccccc1)N1CCCCC1` ?
3.53

Same read-out for `COc1cccc(CN(C(=O)N[C@H](C=O)Cc2ccccc2)N2CCCCC2)c1` ?
3.48

###

- ASSAYED TARGET: MDR1 (ABCB1, P-gp) (Homo sapiens, UniProt P08183)
- EXPERIMENT SUMMARY: Inhibition of MDR1 (unknown origin) expressed in mouse NIH/3T3 cells assessed as inhibition of mitoxatrone efflux at 10 uM after 1 hr by FACS analysis
- Assay type: cell-based, NIH3T3
- CONDITION CONTEXT: NIH/3T3 cells expressing MDR1, probe mitoxantrone (printed: mitoxatrone)
Parameter threshold = 10%. Response is MET when inhibition at 1 h, 10 µM meets or exceeds it, else NOT MET.

Example entries and their recorded answers appear below.
>>> assigned_class("O=C[C@H](Cc1ccccc1)NC(=O)N(Cc1ccccc1)N1CCCCC1")
"NOT MET"
>>> assigned_class("O=C[C@H](Cc1ccccc1)NC(=O)N(Cc1cccc(O)c1)N1CCCCC1")
"NOT MET"
>>> assigned_class("CN(C)N(Cc1ccccc1)C(=O)N[C@H](C=O)Cc1ccccc1")
"NOT MET"
>>> assigned_class("COc1cccc(CN(C(=O)N[C@H](C=O)Cc2ccccc2)N2CCCCC2)c1")
"MET"
>>> assigned_class("O=C[C@H](Cc1ccccc1)NC(=O)N(Cc1ccccc1)N1CCOCC1")
"MET"

Given the entry `O=C[C@H](Cc1ccccc1)N(Cc1ccccc1)C(=O)N(Cc1ccccc1)N1CCCCC1` , answer whether its inhibition at 1 h, 10 µM meets or surpasses 10%.
MET

Same read-out for `O=C[C@H](Cc1ccc(O)cc1)NC(=O)N(Cc1ccccc1)N1CCCCC1` ?
NOT MET

###

- EXPERIMENT SUMMARY: Cytotoxicity against mouse NIH/3T3 cells expressing pgp assessed as cell survival after 72 hrs by MTT assay
- CONDITION CONTEXT: NIH/3T3 cells expressing P-gp
PROPERTY NAME: IC50 at 72 h (µM)
# number only, unit µM dropped from output

Item under review: `O=C[C@H](Cc1ccccc1)N(Cc1ccccc1)C(=O)N(Cc1ccccc1)N1CCCCC1` . Reported IC50 at 72 h?
12.8
